experiment: Plasma concentration after low dose SC injection of nanoparticle or free drug; assay type: in vivo, Mice; details: mouse, plasma, subcutaneous; 10 mg/kg SC, 1 hr
Recorded concentration at 1 hr by entry

>  <smilesNotation>
COC(=O)N[C@H](C(=O)N[C@@H](Cc1ccccc1)[C@@H](O)CN(Cc1ccc(-c2ccccn2)cc1)NC(=O)[C@@H](NC(=O)OC)C(C)(C)C)C(C)(C)C

>  <concentration at 1 hr>
804 ng/mL

$$$$
>  <smilesNotation>
O=C1Nc2ccc(Cl)cc2[C@@](C#CC2CC2)(C(F)(F)F)O1

>  <concentration at 1 hr>
124 ng/mL

$$$$
>  <smilesNotation>
CC(C)c1nc(CN(C)C(=O)N[C@H](C(=O)N[C@@H](Cc2ccccc2)C[C@H](O)[C@H](Cc2ccccc2)NC(=O)OCc2cncs2)C(C)C)cs1

>  <concentration at 1 hr>
492 ng/mL

$$$$

====

Recorded concentration at 96 hr by entry
test: Plasma concentration after low dose SC injection of nanoparticle or free drug; format: in vivo, Mice; conditions: mouse, plasma, subcutaneous; 10 mg/kg SC, 96 hr
measurementKind: concentration at 96 hr

>  <compound>
O=C1Nc2ccc(Cl)cc2[C@@](C#CC2CC2)(C(F)(F)F)O1 [EFV, efavirenz]

>  <measurementKind>
concentration at 96 hr

>  <dataValue>
2.99 ng/mL

$$$$
>  <compound>
CC(C)c1nc(CN(C)C(=O)N[C@H](C(=O)N[C@@H](Cc2ccccc2)C[C@H](O)[C@H](Cc2ccccc2)NC(=O)OCc2cncs2)C(C)C)cs1 [RTV, ritonavir]

>  <measurementKind>
concentration at 96 hr

>  <dataValue>
4.94 ng/mL

$$$$
>  <compound>
COC(=O)N[C@H](C(=O)N[C@@H](Cc1ccccc1)[C@@H](O)CN(Cc1ccc(-c2ccccn2)cc1)NC(=O)[C@@H](NC(=O)OC)C(C)(C)C)C(C)(C)C [ATV, atazanavir]

>  <measurementKind>
concentration at 96 hr

>  <dataValue>
4.3 ng/mL

$$$$

====

Recorded concentration at 0.25 hr by entry
experiment: Plasma concentration after low dose SC injection of nanoparticle or free drug; format: in vivo, Mice; settings: mouse, plasma, subcutaneous; 10 mg/kg SC, 0.25 hr

>  <smilesNotation>
COC(=O)N[C@H](C(=O)N[C@@H](Cc1ccccc1)[C@@H](O)CN(Cc1ccc(-c2ccccn2)cc1)NC(=O)[C@@H](NC(=O)OC)C(C)(C)C)C(C)(C)C

>  <concentration at 0.25 hr / ng/mL>
1150

$$$$
>  <smilesNotation>
CC(C)c1nc(CN(C)C(=O)N[C@H](C(=O)N[C@@H](Cc2ccccc2)C[C@H](O)[C@H](Cc2ccccc2)NC(=O)OCc2cncs2)C(C)C)cs1

>  <concentration at 0.25 hr / ng/mL>
1080

$$$$
>  <smilesNotation>
O=C1Nc2ccc(Cl)cc2[C@@](C#CC2CC2)(C(F)(F)F)O1

>  <concentration at 0.25 hr / ng/mL>
301

$$$$

====

experiment: Plasma concentration after low dose SC injection of nanoparticle or free drug; format: in vivo, Mice; settings: mouse, plasma, subcutaneous; 10 mg/kg SC, 336 hr

>  <smilesNotation>
COC(=O)N[C@H](C(=O)N[C@@H](Cc1ccccc1)[C@@H](O)CN(Cc1ccc(-c2ccccn2)cc1)NC(=O)[C@@H](NC(=O)OC)C(C)(C)C)C(C)(C)C

>  <measureUnit>
ng/mL

>  <concentration at 336 hr>
0

$$$$
>  <smilesNotation>
CC(C)c1nc(CN(C)C(=O)N[C@H](C(=O)N[C@@H](Cc2ccccc2)C[C@H](O)[C@H](Cc2ccccc2)NC(=O)OCc2cncs2)C(C)C)cs1

>  <measureUnit>
ng/mL

>  <concentration at 336 hr>
0

$$$$

====

test: Plasma concentration after low dose SC injection of nanoparticle or free drug; assay type: in vivo, Mice; settings: mouse, plasma, subcutaneous; 10 mg/kg SC, 6 hr

>  <smilesNotation>
CC(C)c1nc(CN(C)C(=O)N[C@H](C(=O)N[C@@H](Cc2ccccc2)C[C@H](O)[C@H](Cc2ccccc2)NC(=O)OCc2cncs2)C(C)C)cs1

>  <measureUnit>
ng/mL

>  <concentration at 6 hr>
551

$$$$
>  <smilesNotation>
COC(=O)N[C@H](C(=O)N[C@@H](Cc1ccccc1)[C@@H](O)CN(Cc1ccc(-c2ccccn2)cc1)NC(=O)[C@@H](NC(=O)OC)C(C)(C)C)C(C)(C)C

>  <measureUnit>
ng/mL

>  <concentration at 6 hr>
2100

$$$$
>  <smilesNotation>
O=C1Nc2ccc(Cl)cc2[C@@](C#CC2CC2)(C(F)(F)F)O1

>  <measureUnit>
ng/mL

>  <concentration at 6 hr>
213

$$$$

====

experiment: Plasma concentration after low dose SC injection of nanoparticle or free drug; type: in vivo, Mice; conditions: mouse, plasma, subcutaneous; 10 mg/kg SC, 24 hr

>  <smilesNotation>
O=C1Nc2ccc(Cl)cc2[C@@](C#CC2CC2)(C(F)(F)F)O1

>  <concentration at 24 hr, ng/mL>
7.1

$$$$
>  <smilesNotation>
CC(C)c1nc(CN(C)C(=O)N[C@H](C(=O)N[C@@H](Cc2ccccc2)C[C@H](O)[C@H](Cc2ccccc2)NC(=O)OCc2cncs2)C(C)C)cs1

>  <concentration at 24 hr, ng/mL>
5.91

$$$$
>  <smilesNotation>
COC(=O)N[C@H](C(=O)N[C@@H](Cc1ccccc1)[C@@H](O)CN(Cc1ccc(-c2ccccn2)cc1)NC(=O)[C@@H](NC(=O)OC)C(C)(C)C)C(C)(C)C

>  <concentration at 24 hr, ng/mL>
9.85

$$$$

====

experiment: Plasma concentration after low dose SC injection of nanoparticle or free drug; format: in vivo, Mice; details: mouse, plasma, subcutaneous; 10 mg/kg SC, 48 hr
Recorded concentration at 48 hr by entry
measurementKind: concentration at 48 hr (ng/mL)

>  <smilesNotation>
COC(=O)N[C@H](C(=O)N[C@@H](Cc1ccccc1)[C@@H](O)CN(Cc1ccc(-c2ccccn2)cc1)NC(=O)[C@@H](NC(=O)OC)C(C)(C)C)C(C)(C)C

>  <dataValue>
4.38

$$$$
>  <smilesNotation>
O=C1Nc2ccc(Cl)cc2[C@@](C#CC2CC2)(C(F)(F)F)O1

>  <dataValue>
2.17

$$$$
>  <smilesNotation>
CC(C)c1nc(CN(C)C(=O)N[C@H](C(=O)N[C@@H](Cc2ccccc2)C[C@H](O)[C@H](Cc2ccccc2)NC(=O)OCc2cncs2)C(C)C)cs1

>  <dataValue>
2.36

$$$$

====

Recorded concentration at 3 hr by entry
test: Plasma concentration after low dose SC injection of nanoparticle or free drug; type: in vivo, Mice; conditions: mouse, plasma, subcutaneous; 10 mg/kg SC, 3 hr

>  <smilesNotation>
COC(=O)N[C@H](C(=O)N[C@@H](Cc1ccccc1)[C@@H](O)CN(Cc1ccc(-c2ccccn2)cc1)NC(=O)[C@@H](NC(=O)OC)C(C)(C)C)C(C)(C)C

>  <concentration at 3 hr [ng/mL]>
2060

$$$$
>  <smilesNotation>
O=C1Nc2ccc(Cl)cc2[C@@](C#CC2CC2)(C(F)(F)F)O1

>  <concentration at 3 hr [ng/mL]>
155

$$$$
>  <smilesNotation>
CC(C)c1nc(CN(C)C(=O)N[C@H](C(=O)N[C@@H](Cc2ccccc2)C[C@H](O)[C@H](Cc2ccccc2)NC(=O)OCc2cncs2)C(C)C)cs1

>  <concentration at 3 hr [ng/mL]>
710

$$$$
